Method Summary: qHTS assay for small molecule agonists of the antioxidant response element (ARE) signaling pathway - cell viability counter screen (AID 743203); also: nearly all actives have a fitted effect of over 55% in size
Experimental Context: ARE-bla HepG2 viability, CellTiter-Glo luminescence, 16 h; series mostly up to 73.3 µM
Inconclusive results are not listed. The source made the active and inactive calls. Calls follow the shape of the full dose curve.
Entry note: the call must match one of yes (1) (active), no (0) (inactive)

Prompt: // outcome(item) with item = `NC(=O)CC[C@@H]1NC(=O)[C@H](Cc2ccccc2)NC(=O)[C@H](Cc2ccc(O)cc2)NC(=O)CCSSC[C@@H](C(=O)N2CCC[C@H]2C(=O)N[C@@H](CCCN=C(N)N)C(=O)NCC(N)=O)NC(=O)[C@H](CC(N)=O)NC1=O`
Response: no (0)

Prompt: Queued: `CCCCCCCCCCC=O`
Response: no (0)

Prompt: `CCCCCCCCCCCCc1ccc(O)cc1` ?
Response: yes (1)

Prompt: Next: `O=C(Nc1cccc(C(F)(F)F)c1)c1cc(Br)cc(Br)c1O`
Response: yes (1)

Prompt: Subsequent entry: `Clc1ccc2n[nH]nc2c1`
Response: no (0)

Prompt: Further, for `CSc1cnc(C)cn1` ?
Response: no (0)

Prompt: What would you report for `CC[C@@]1(O)C(=O)OCc2c1cc1n(c2=O)Cc2c-1nc1ccccc1c2/C=N/OC(C)(C)C` ?
Response: yes (1)

Prompt: Note, next up: `CC(C)n1nc(-c2cc3cc(O)ccc3[nH]2)c2c(N)ncnc21`
Response: no (0)

Prompt: Record: `OCc1c[nH]c2ccccc12`
Response: no (0)

Prompt: Proceed to `O=C(OCC(COC(=O)c1ccccc1)(COC(=O)c1ccccc1)COC(=O)c1ccccc1)c1ccccc1`
Response: no (0)

Prompt: Quick one: `Oc1cc2ccccc2c2ccccc12`
Response: yes (1)

Prompt: Further, for Cc1cccc(CN2CCN(C(c3ccccc3)c3ccc(Cl)cc3)CC2)c1 (centres undefined) ?
Response: no (0)

Prompt: Likewise for `CN(C)[C@@H]1C(=O)C(C(N)=O)=C(O)[C@@]2(O)C(=O)C3=C(O)c4c(O)cccc4C[C@H]3C[C@@H]12` ?
Response: no (0)

Prompt: And `CCOC(=O)/C=C(C)/C=C/C=C(C)/C=C/c1c(C)cc(OC)c(C)c1C` ?
Response: no (0)

Prompt: Same question for `COc1ccc(-c2ccc3cc(C(=O)O)ccc3c2)cc1C12CC3CC(CC(C3)C1)C2` please.
Response: yes (1)

Prompt: Follow-up item: `OCCN(CCO)c1nc(N2CCCCC2)c2nc(N(CCO)CCO)nc(N3CCCCC3)c2n1`
Response: no (0)

Prompt: Same read-out for `CCCCCCCC/C=C\CCCCCCCCOCCO` ?
Response: yes (1)

Prompt: Check `NNC(=O)c1cccc(C(=O)NN)c1` too.
Response: no (0)

Prompt: Subsequent entry: `O=c1cc(-c2ccc(O)cc2)oc2cc(O)cc(O)c12`
Response: no (0)

Prompt: Here is the next compound: CCOc1nc2cccc(C(=O)OC(C)OC(=O)OC3CCCCC3)c2n1Cc1ccc(-c2ccccc2-c2nn[nH]n2)cc1 (centres undefined)
Response: yes (1)

Prompt: Next: `CC/C(=C(\c1ccc(O)cc1)c1ccc(OCCN(C)C)cc1)c1ccccc1`
Response: yes (1)

Prompt: Now consider CC(NN)c1ccccc1 (centres undefined) .
Response: no (0)

Prompt: Would you mind doing `C[C@H]1[C@H]2CC[C@H]3[C@@H]4CC=C5C[C@@H](N(C)C)CC[C@]5(C)[C@H]4CC[C@]23CN1C` as well?
Response: no (0)

Prompt: And `CS(=O)(=O)CCNCc1ccc(-c2ccc3ncnc(Nc4ccc(OCc5cccc(F)c5)c(Cl)c4)c3c2)o1` ?
Response: yes (1)

Prompt: Query `CCOC(=O)c1nc(C(Cl)(Cl)Cl)n(-c2ccc(Cl)cc2Cl)n1` next
Response: yes (1)

Prompt: Do the same for `CCN(C(=O)c1cc(C)cc(OC[C@H](C)Nc2ccncc2)c1)C(C)C` please
Response: no (0)

Prompt: Please do the same for `CNCc1cc(F)ccc1Oc1ccc(Cl)c(Cl)c1` as well.
Response: yes (1)

Prompt: Similarly, CC(C)(C)C1CCC(CC2=C(O)c3ccccc3C(=O)C2=O)CC1 (centres undefined) ?
Response: no (0)

Prompt: And `Cc1onc(-c2c(Cl)cccc2Cl)c1C(=O)N[C@@H]1C(=O)N2[C@@H]1SC(C)(C)[C@@H]2C(=O)O` ?
Response: no (0)

Prompt: Param item: `O=C(NO)C1(NS(=O)(=O)c2ccc(Oc3ccc(F)cc3)cc2)CCOCC1`
Response: no (0)

Prompt: Repeat for the following compound: CCCC(C)c1ccccc1O (centres undefined)
Response: no (0)

Prompt: And then `Oc1ccc2c(c1)-c1ccccc1C2` , what is it?
Response: no (0)

Prompt: Same for COC(=O)C1=C(C)NC(C)=C(C(=O)OCC(C)C)C1c1ccccc1[N+](=O)[O-] (centres undefined)
Response: no (0)

Prompt: For `Cc1cccc(S(=O)(=O)O)c1C` then?
Response: no (0)

Prompt: Entry to check: `CCOC(=O)O[C@]1(C(=O)OCCl)CC[C@H]2[C@@H]3CCC4=CC(=O)C=C[C@]4(C)[C@H]3[C@@H](O)C[C@@]21C`
Response: no (0)

Prompt: `C=CC(=O)OCCn1c(=O)n(CCOC(=O)C=C)c(=O)n(CCOC(=O)C=C)c1=O` ?
Response: yes (1)

Prompt: Try this compound too: `CCCCCCCC[N+](CCCCCCCC)(CCCCCCCC)CCCCCCCC`
Response: yes (1)

Prompt: Same question for `CN(C)CCCOC1(Cc2ccccc2)CCCCCC1` please.
Response: no (0)

Prompt: Repeat with `COc1cccc(N)c1`
Response: no (0)

Prompt: Subsequent entry: O=C(OCC1CO1)C1CCCCC1C(=O)OCC1CO1 (centres undefined)
Response: no (0)

Prompt: // query: `Oc1ccc(N=Nc2ccccc2)cc1`
Response: no (0)

Prompt: Another compound to look at: `OC1(c2ccc(Cl)c(C(F)(F)F)c2)CCN(CCCC(c2ccc(F)cc2)c2ccc(F)cc2)CC1`
Response: yes (1)

Prompt: Same question, `CCc1oc2ccccc2c1C(=O)c1cc(Br)c(O)c(Br)c1` this time
Response: yes (1)

Prompt: # repeat for CC(=O)OCC(C)OC(C)=O (centres undefined)
Response: no (0)

----------
Task for the reader: assign each of the following compounds its reported max response.
Method Summary: qHTS RealTime-Glo MT Cell Viability Assay in HEK293 cells - 40 hour (AID 1224874); also: % is scaled to controls: 0 for no effect and ±100 for the full control effect; nearly all actives have a fitted effect of over 50% in size
Experimental Context: RealTime-Glo luminescence; active compounds read low
Records with an inconclusive call do not appear. The source made the active and inactive calls. The call rests on the fitted dose curve; in most records, active means well fitted cell-killing curve with a large enough effect in the repeat runs; inconclusive means weak or mixed curves, or effect the other way; inactive means flat fitted curve, though single readings scatter.

Prompt: Find the recorded max response belonging to `C[C@@H]1C[C@H]2[C@@H]3CCC4=CC(=O)C=C[C@]4(C)[C@@]3(Cl)[C@@H](O)C[C@]2(C)[C@@]1(OC(=O)c1ccco1)C(=O)CCl` and report it.
Response: -19.5% (inactive)

Prompt: Proceed to `CCCC(=O)OC[C@@H](OC(=O)CCC)[C@@H](OC(=O)CCC)[C@H](Cn1c2nc(=O)[nH]c(=O)c-2nc2cc(C)c(C)cc21)OC(=O)CCC`
Response: -24.9% (inactive)

Prompt: Same question, `CCC(N)(CO)CO` this time
Response: 11.9% (inactive)

Prompt: Try this compound next: `Nc1c(Cl)cc(Cl)cc1Cl`
Response: -15.4% (inactive)

Prompt: Consider next the compound `Cc1ccc(O)c2ncccc12` in the same way.
Response: -18.6% (inactive)

Prompt: Likewise for `Oc1cccc2cc3cccc(O)c3c(O)c12` ?
Response: 0.771% (inactive)

Prompt: Cool, now `Cc1cc(O)c(Cl)c(C)c1Cl`
Response: -27.6% (inactive)

Prompt: Another: `O=[N+]([O-])c1cc([N+](=O)[O-])c2ccc(S(=O)(=O)O)cc2c1O`
Response: -17.1% (inactive)

Prompt: Check `Nc1cc(C(F)(F)F)ccc1S` too.
Response: 3.21% (inactive)

Prompt: Same lookup for `Cc1cc(N)c(S(=O)(=O)O)cc1Cl` , please.
Response: 1.42% (inactive)

Prompt: Now the compound Cc1cccc(N(C)C(=S)Oc2ccc3c(c2)C2CCC3C2)c1 (stereo unspecified)
Response: -13.2% (inactive)

----------
System Name: Vitamin D3 receptor (Homo sapiens)
Method Summary: qHTS assay to identify small molecule agonists of the vitamin D receptor (VDR) signaling pathway (AID 743222); also: % is scaled to controls: 0 for no effect and ±100 for the full control effect
Experimental Context: HEK293T VDR-UAS-bla, beta-lactamase FRET ratio, 16 h; series mostly up to 63.5 µM
Results filed as inconclusive are left out. Active and inactive are the calls of the source. Calls come from the whole dose curve.
Property Name: outcome

Clc1ccccc1C(c1ccccc1)(c1ccccc1)n1ccnc1 :: inactive
Cc1cccc(S(=O)(=O)O)c1C :: inactive
CC(C)=CCOc1ccc(/C=C/C(=O)c2ccc(OCC=C(C)C)cc2OCC(=O)O)cc1 :: inactive
Cc1onc(-c2ccccc2Cl)c1C(=O)N[C@@H]1C(=O)N2[C@@H]1SC(C)(C)[C@@H]2C(=O)O :: inactive
CCCCCCCC(=O)[O-].CCCCCCCC(=O)[O-].[Zn+2] :: inactive
C[C@]12CCC(=O)C=C1CC[C@@H]1[C@@H]2[C@@H](O)C[C@@]2(C)[C@H]1CC[C@]2(O)C(=O)COC(=O)CCC(=O)O :: inactive
OCCCCCCCCCCCCBr :: inactive
O=C(OCC(COC(=O)c1ccccc1)(COC(=O)c1ccccc1)COC(=O)c1ccccc1)c1ccccc1 :: inactive

Prompt: // lookup outcome for `NC(=O)CC[C@@H]1NC(=O)[C@H](Cc2ccccc2)NC(=O)[C@H](Cc2ccc(O)cc2)NC(=O)CCSSC[C@@H](C(=O)N2CCC[C@H]2C(=O)N[C@@H](CCCN=C(N)N)C(=O)NCC(N)=O)NC(=O)[C@H](CC(N)=O)NC1=O`
Response: inactive

Data origin, for the record: PubChem BioAssay (Tox21)
